Data provenance: patent US8410310B2

# testedSystem: UniProtKB P00734
# assaySummary: Determination of inhibition constants for thrombin
# Assay type: biochemical
pKi: −log10 of the molar value.
The entries below come with measured pKi values attached.

[
  {
    "compound": "N=C(N)c1ccc(CNC(=O)[C@H](CCc2ccccc2)NC(=O)[C@@H](CCCc2ccc[n+]([O-])c2)NS(=O)(=O)Cc2ccccc2)cc1 [compound 55]",
    "pKi": "> 7.00"
  },
  {
    "compound": "N=C(N)c1ccc(CNC(=O)[C@H](Cc2cccc(CN)c2)NC(=O)[C@@H](CC2CCCCC2)NS(=O)(=O)Cc2ccccc2)cc1 [compound 20]",
    "pKi": "> 6.00"
  },
  {
    "compound": "CC(C)(C)OC[C@@H](NS(=O)(=O)Cc1ccccc1)C(=O)N[C@@H](CCc1ccc(C(=N)N)cc1)C(=O)NCc1ccc(C(=N)N)cc1 [compound 77]",
    "pKi": "> 7.00"
  }
]

Sure, the documented pKi for N=C(N)c1ccc(CNC(=O)[C@H](CCc2ccccc2)NC(=O)[C@@H](CCCc2ccccc2)NS(=O)(=O)Cc2cccc(C(=O)O)c2)cc1 [compound 36] is > 6.00

Sure, the documented pKi for N=C(N)c1ccc(CNC(=O)[C@H](Cc2ccc(C(=N)N)cc2)NC(=O)[C@@H](CO)NS(=O)(=O)Cc2ccccc2)cc1 [compound 76] is < 6.00

Sure, the documented pKi for N=C(N)c1ccc(CNC(=O)[C@H](CCc2ccncc2)NC(=O)[C@@H](CCCc2ccccc2)NS(=O)(=O)Cc2cccc(C(=O)O)c2)cc1 [compound 40] is > 7.00
